The origin of these recorded values is ChEMBL document CHEMBL4052645.

Test: Oral bioavailability in rat
Type: ADME, organism-based
Details: in vivo
assay-metric: bioavailability (%)
# unit: % | format: bare number

query: Look up bioavailability: `CC1(C)[C@H](Nc2c(C(N)=O)cnn3cccc23)CC[C@]1(C)N`
result: 24

###

The reader will find pIC50 measurements below, all made with UniProtKB O60674.
Sequence (O60674 whole entry): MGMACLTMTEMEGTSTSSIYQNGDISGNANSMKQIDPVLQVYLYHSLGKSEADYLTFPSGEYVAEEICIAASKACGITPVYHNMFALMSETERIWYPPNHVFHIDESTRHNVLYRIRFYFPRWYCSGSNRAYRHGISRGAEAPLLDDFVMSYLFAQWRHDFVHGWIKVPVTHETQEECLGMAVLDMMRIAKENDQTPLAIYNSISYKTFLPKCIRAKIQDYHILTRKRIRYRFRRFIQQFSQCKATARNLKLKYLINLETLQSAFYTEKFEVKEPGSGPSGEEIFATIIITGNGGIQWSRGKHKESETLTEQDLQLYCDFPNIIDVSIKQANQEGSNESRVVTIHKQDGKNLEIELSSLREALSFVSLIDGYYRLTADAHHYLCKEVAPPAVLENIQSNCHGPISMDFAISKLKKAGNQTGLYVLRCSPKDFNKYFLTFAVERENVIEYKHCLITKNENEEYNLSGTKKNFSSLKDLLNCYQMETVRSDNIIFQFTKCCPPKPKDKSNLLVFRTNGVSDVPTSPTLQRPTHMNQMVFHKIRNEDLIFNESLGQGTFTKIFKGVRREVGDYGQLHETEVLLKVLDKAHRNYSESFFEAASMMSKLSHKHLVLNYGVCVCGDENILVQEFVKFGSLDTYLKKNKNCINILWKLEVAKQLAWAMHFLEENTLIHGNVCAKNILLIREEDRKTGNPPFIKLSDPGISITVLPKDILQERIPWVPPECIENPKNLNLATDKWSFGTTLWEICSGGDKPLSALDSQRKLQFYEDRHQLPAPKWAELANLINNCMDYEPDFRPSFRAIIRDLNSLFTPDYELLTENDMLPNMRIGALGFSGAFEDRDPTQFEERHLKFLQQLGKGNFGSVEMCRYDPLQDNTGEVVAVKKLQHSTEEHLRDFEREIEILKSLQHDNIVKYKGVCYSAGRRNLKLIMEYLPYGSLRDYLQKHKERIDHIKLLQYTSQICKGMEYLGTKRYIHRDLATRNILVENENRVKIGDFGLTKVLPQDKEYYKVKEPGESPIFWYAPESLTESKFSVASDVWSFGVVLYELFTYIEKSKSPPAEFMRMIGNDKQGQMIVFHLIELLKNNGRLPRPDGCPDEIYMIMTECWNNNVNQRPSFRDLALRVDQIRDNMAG
// field semantics: pIC50 = negative decimal log of concentration (mol/L)

The cases that follow already have their pIC50 on record.
[
  {
    "structure-as-smiles": "CC1(C)[C@H](Nc2c(C(N)=O)cnn3cc(-c4cncc(F)c4)cc23)CC[C@]1(C)N",
    "target-desc": "UniProtKB O60674",
    "observed-value": 7.36
  },
  {
    "structure-as-smiles": "Cc1cnccc1-c1cc2c(N[C@@H]3CC[C@](C)(N)C3(C)C)c(C(N)=O)cnn2c1",
    "target-desc": "UniProtKB O60674",
    "observed-value": 7.72
  },
  {
    "structure-as-smiles": "CC1(C)[C@H](Nc2c(C(N)=O)cnn3cc(-c4cc[nH]n4)cc23)CC[C@]1(C)N",
    "target-desc": "UniProtKB O60674",
    "observed-value": 7.68
  },
  {
    "structure-as-smiles": "COc1ccc(-c2cc3c(N[C@@H]4CC[C@](C)(N)C4(C)C)c(C(N)=O)cnn3c2)cn1",
    "target-desc": "UniProtKB O60674",
    "observed-value": 7.82
  },
  {
    "structure-as-smiles": "CC1(C)[C@H](Nc2c(C(N)=O)cnn3cc(-c4ccccc4)cc23)CC[C@]1(C)N",
    "target-desc": "UniProtKB O60674",
    "observed-value": 8.05
  }
]

query: Look up pIC50: `COc1ccccc1-c1cc2c(N[C@@H]3CC[C@](C)(N)C3(C)C)c(C(N)=O)cnn2c1`
result: 7.70

query: Also `CC1(C)[C@H](Nc2c(C(N)=O)cnn3cc(-c4ccncc4)cc23)CC[C@]1(C)N` ?
result: 7.10

###

Assay: Oral bioavailability in BALB/c mouse at 10 mg/kg
Type: ADME, organism-based
Settings: in vivo
assay-metric: bioavailability (%)
# unit: % | format: bare number

query: Look up bioavailability: `COc1ccc(-c2cc3c(N[C@@H]4CC[C@](C)(N)C4(C)C)c(C(N)=O)cnn3c2)cn1`
result: 73

###

Experiment: Half life in Sprague-Dawley rat at 10 mg/kg, po
Assay type: ADME, organism-based
Details: in vivo
assay-metric: half-life (min)
# unit: min | format: bare number

query: Look up half-life: `COc1ccc(-c2cc3c(N[C@@H]4CC[C@](C)(N)C4(C)C)c(C(N)=O)cnn3c2)cn1`
result: 732

###

Experiment: Protein binding in human serum
Format: ADME, cell-free
Conditions: read-out: PB (converted)
assay-metric: fraction unbound

query: Look up fraction unbound: `CC1(C)[C@H](Nc2c(C(N)=O)cnn3cc(-c4ccccc4)cc23)CC[C@]1(C)N`
result: 0.52

###

Target: Voltage-gated inwardly rectifying potassium channel KCNH2 (Homo sapiens)
Experiment: Inhibition of human ERG by flux-based assay
In this section we review reported pIC50 values for a set of molecules.
// field semantics: pIC50 = negative decimal log of concentration (mol/L)

The cases that follow already have their pIC50 on record.
[
  {
    "structure-as-smiles": "Cc1cc(-c2cc3c(N[C@@H]4CC[C@](C)(N)C4(C)C)c(C(N)=O)cnn3c2)ccn1",
    "target-desc": "Voltage-gated inwardly rectifying potassium channel KCNH2 (Homo sapiens)",
    "observed-value": 4.52
  },
  {
    "structure-as-smiles": "CC1(C)[C@H](Nc2c(C(N)=O)cnn3cc(-c4ccc(F)cc4)cc23)CC[C@]1(C)N",
    "target-desc": "Voltage-gated inwardly rectifying potassium channel KCNH2 (Homo sapiens)",
    "observed-value": 4.99
  },
  {
    "structure-as-smiles": "Cc1cccc(-c2cc3c(N[C@@H]4CC[C@](C)(N)C4(C)C)c(C(N)=O)cnn3c2)c1",
    "target-desc": "Voltage-gated inwardly rectifying potassium channel KCNH2 (Homo sapiens)",
    "observed-value": 5.11
  },
  {
    "structure-as-smiles": "CC1(C)[C@H](Nc2c(C(N)=O)cnn3cc(-c4ccc(F)nc4)cc23)CC[C@]1(C)N",
    "target-desc": "Voltage-gated inwardly rectifying potassium channel KCNH2 (Homo sapiens)",
    "observed-value": 4.46
  },
  {
    "structure-as-smiles": "Cc1ccncc1-c1cc2c(N[C@@H]3CC[C@](C)(N)C3(C)C)c(C(N)=O)cnn2c1",
    "target-desc": "Voltage-gated inwardly rectifying potassium channel KCNH2 (Homo sapiens)",
    "observed-value": 4.74
  },
  {
    "structure-as-smiles": "CC(C)Oc1ccc(-c2cc3c(N[C@@H]4CC[C@](C)(N)C4(C)C)c(C(N)=O)cnn3c2)cn1",
    "target-desc": "Voltage-gated inwardly rectifying potassium channel KCNH2 (Homo sapiens)",
    "observed-value": 5.28
  },
  {
    "structure-as-smiles": "CC1(C)[C@H](Nc2c(C(N)=O)cnn3cc(-c4cccc(F)c4)cc23)CC[C@]1(C)N",
    "target-desc": "Voltage-gated inwardly rectifying potassium channel KCNH2 (Homo sapiens)",
    "observed-value": 5.12
  },
  {
    "structure-as-smiles": "COc1ccc(-c2cc3c(N[C@@H]4CC[C@](C)(N)C4(C)C)c(C(N)=O)cnn3c2)cc1",
    "target-desc": "Voltage-gated inwardly rectifying potassium channel KCNH2 (Homo sapiens)",
    "observed-value": 4.86
  }
]

query: Look up pIC50: `CCOc1ccc(-c2cc3c(N[C@@H]4CC[C@](C)(N)C4(C)C)c(C(N)=O)cnn3c2)cn1`
result: 4.77

query: Also `Cc1ccc(-c2cc3c(N[C@@H]4CC[C@](C)(N)C4(C)C)c(C(N)=O)cnn3c2)cn1` ?
result: 5.10

query: Also `COc1cccc(-c2cc3c(N[C@@H]4CC[C@](C)(N)C4(C)C)c(C(N)=O)cnn3c2)c1` ?
result: 5.14

query: Also `COc1ccccc1-c1cc2c(N[C@@H]3CC[C@](C)(N)C3(C)C)c(C(N)=O)cnn2c1` ?
result: 5.12

query: Also `CC1(C)[C@H](Nc2c(C(N)=O)cnn3cc(-c4cncnc4)cc23)CC[C@]1(C)N` ?
result: 5.07

###

Assay: Metabolic stability in mouse liver microsomes assessed as compound remaining after 10 mins
Type: ADME, microsome
Settings: read-out: Stability
# if measured remaining at 10 min < 90%: YES  # else: NO

query: Input `COc1ccc(-c2cc3c(N[C@@H]4CC[C@](C)(N)C4(C)C)c(C(N)=O)cnn3c2)cn1` ; condition: remaining at 10 min strictly below 90%. Does it hold?
result: NO

query: Also `CC1(C)[C@H](Nc2c(C(N)=O)cnn3cc(-c4ccncc4F)cc23)CC[C@]1(C)N` ?
result: YES

query: Also `CC1(C)[C@H](Nc2c(C(N)=O)cnn3cc(-c4cc[nH]n4)cc23)CC[C@]1(C)N` ?
result: YES

query: Also `CC1(C)[C@H](Nc2c(C(N)=O)cnn3cc(-c4ccncc4)cc23)CC[C@]1(C)N` ?
result: YES

###

Assay: Tmax in Sprague-Dawley rat at 10 mg/kg, po
Format: ADME, organism-based
Conditions: in vivo
assay-metric: Tmax (h)
# unit: h | format: bare number

query: Look up Tmax: `COc1ccc(-c2cc3c(N[C@@H]4CC[C@](C)(N)C4(C)C)c(C(N)=O)cnn3c2)cn1`
result: 7.3

###

Biological target: Voltage-gated inwardly rectifying potassium channel KCNH2 (Homo sapiens, UniProt Q12809)
Sequence (Q12809 whole entry): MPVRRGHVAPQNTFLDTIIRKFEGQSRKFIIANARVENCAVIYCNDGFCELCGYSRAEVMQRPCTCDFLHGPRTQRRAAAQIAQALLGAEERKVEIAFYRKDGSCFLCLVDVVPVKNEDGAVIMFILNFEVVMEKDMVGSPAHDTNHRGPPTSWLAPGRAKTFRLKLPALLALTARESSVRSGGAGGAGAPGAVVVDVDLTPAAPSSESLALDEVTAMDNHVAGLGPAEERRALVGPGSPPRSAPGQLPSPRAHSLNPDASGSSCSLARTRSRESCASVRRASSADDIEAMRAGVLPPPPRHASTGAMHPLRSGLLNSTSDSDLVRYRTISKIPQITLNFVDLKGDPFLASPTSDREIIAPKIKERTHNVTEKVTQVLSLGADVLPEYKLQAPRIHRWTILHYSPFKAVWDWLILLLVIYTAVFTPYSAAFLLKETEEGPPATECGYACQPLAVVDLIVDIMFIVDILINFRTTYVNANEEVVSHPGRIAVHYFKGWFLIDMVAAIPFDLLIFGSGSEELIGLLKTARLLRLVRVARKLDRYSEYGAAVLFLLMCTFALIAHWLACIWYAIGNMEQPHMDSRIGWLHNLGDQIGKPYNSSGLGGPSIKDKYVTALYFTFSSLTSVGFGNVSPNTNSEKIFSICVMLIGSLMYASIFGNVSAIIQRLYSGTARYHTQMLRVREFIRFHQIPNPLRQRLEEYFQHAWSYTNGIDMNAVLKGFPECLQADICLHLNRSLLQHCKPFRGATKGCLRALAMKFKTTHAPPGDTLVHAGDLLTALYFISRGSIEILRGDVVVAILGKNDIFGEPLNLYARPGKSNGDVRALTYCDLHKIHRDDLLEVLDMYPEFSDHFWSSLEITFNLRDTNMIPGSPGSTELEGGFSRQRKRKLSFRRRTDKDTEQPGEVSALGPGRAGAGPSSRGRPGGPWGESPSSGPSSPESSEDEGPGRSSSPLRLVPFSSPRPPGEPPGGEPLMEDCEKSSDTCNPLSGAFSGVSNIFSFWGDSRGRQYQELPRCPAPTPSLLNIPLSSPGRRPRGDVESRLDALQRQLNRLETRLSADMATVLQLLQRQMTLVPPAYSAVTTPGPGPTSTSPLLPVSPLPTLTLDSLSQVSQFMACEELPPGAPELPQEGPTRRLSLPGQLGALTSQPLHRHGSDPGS
Assay: Inhibition of human ERG by patch clamp method
assay-metric: IC50 (µM)
# unit: µM | format: bare number

query: Look up IC50: `COc1ccc(-c2cc3c(N[C@@H]4CC[C@](C)(N)C4(C)C)c(C(N)=O)cnn3c2)cn1`
result: 3

###

Assay: Cmax in BALB/c mouse at 10 mg/kg, po
Type: ADME, organism-based
Set-up: dose 10 mg/kg, route oral
Details: in vivo
assay-metric: Cmax (nM)
# unit: nM | format: bare number

query: Look up Cmax: `COc1ccc(-c2cc3c(N[C@@H]4CC[C@](C)(N)C4(C)C)c(C(N)=O)cnn3c2)cn1`
result: 1100

###

Experiment: Clearance of compound in mouse
Type: ADME, organism-based
Settings: in vivo
assay-metric: clearance
Answer format reminder: number followed by unit.

query: Look up clearance: `CC1(C)[C@H](Nc2c(C(N)=O)cnn3cc(-c4ccccc4)cc23)CC[C@]1(C)N`
result: 29 mL/min/kg

###

Assay: Drug concentration in mouse at 10 mg/kg, po qd after 24 hrs
Type: ADME, organism-based
Settings: in vivo, read-out: Drug uptake
assay-metric: concentration at 24 h (µM)
# unit: µM | format: bare number

query: Look up concentration at 24 h: `CC1(C)[C@H](Nc2c(C(N)=O)cnn3cc(-c4ccccc4)cc23)CC[C@]1(C)N`
result: 0.39
